Assay: CCTE_Shafer_MEA_dev_LDH: CCTE's Lactate Dehydrogenase Assay for Cytotoxicity in the Neural Network Formation Assay, Shafer Lab (AID 2284068);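 note: exposure for twelve days from plating with re-dosing on DIV 5 and 9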
Experimental: CCTE_Shafer_MEA_dev assay is conducted using Axion Biosystems 48 well microelectrode array (MEA) plates and Maestro recording system. Each well of the MEA plate contains a grid of 16 microelectrodes embedded in the culture surface. Electrically active cells, such as neurons, can be cultured over the electrodes, and electrical activity in these cells can be recorded extracellularly. […]
Inconclusive results are not listed. Active and inactive are the calls of the source. Rule for the calls: active = hit-call score of the fitted dose curve at least 0.9, where 1 is the maximum; inconclusive = response in the unintended direction; inactive = score below 0.9.
Response enum: active, inactive

Answered cases to consult:
CC1(c2ccc(Oc3ccccc3)cc2)OC(=O)N(Nc2ccccc2)C1=O (stereo unspecified) | active
CCC(C)(C)C(=O)OC1=C(c2ccc(Cl)cc2Cl)C(=O)OC12CCCCC2 | inactive
Oc1cc(Cl)ccc1Oc1ccc(Cl)cc1Cl | active

Which outcome was assigned to O=C(O)C(F)(F)C(F)(F)C(F)(F)C(F)(F)C(F)(F)C(F)(F)C(F)(F)F in this test?
inactive

Field: outcome | Entry: O=C(O)COc1ccc(Cl)cc1Cl
active

Which result was noted for this compound in the test: ClC1C(Cl)C(Cl)C(Cl)C(Cl)C1Cl (stereo unspecified)
inactive
